target: human NLRP3-PYD-NACHT domain protein (Homo sapiens, UniProt Q96P20)
Sequence (Q96P20 1-649 limits assumed): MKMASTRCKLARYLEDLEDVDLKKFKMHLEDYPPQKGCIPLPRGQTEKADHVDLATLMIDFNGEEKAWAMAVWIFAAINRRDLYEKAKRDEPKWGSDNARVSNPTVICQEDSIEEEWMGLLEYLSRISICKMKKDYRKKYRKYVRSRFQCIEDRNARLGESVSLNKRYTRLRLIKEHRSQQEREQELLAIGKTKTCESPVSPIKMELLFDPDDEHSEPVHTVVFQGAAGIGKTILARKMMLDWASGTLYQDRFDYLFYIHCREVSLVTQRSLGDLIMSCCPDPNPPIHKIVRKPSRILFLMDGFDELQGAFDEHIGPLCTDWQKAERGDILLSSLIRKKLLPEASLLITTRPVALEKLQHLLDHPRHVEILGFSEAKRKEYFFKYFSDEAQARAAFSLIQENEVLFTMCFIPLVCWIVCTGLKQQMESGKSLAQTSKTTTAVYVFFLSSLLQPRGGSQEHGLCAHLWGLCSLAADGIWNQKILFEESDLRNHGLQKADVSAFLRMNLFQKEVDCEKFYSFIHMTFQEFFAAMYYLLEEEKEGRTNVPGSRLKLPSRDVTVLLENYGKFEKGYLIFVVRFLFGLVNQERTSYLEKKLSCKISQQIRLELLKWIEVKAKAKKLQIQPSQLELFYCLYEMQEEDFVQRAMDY
pKd: −log10 of the molar value.
RECORDED_ENDPOINT: pKd

* O=C(COCCOCCNC(=O)c1cc2cc3c4c(c2oc1=O)CCCN4CCC3)NCc1ccc(S(=O)(=O)NC(=O)Nc2c3c(cc4c2CCC4)CCC3)cc1 | 6.09
* O=C(CCCC[C@H]1SC[C@H]2NC(=O)N[C@H]21)NCCOCCOCC(=O)NCc1ccc(S(=O)(=O)NC(=O)Nc2c3c(cc4c2CCC4)CCC3)cc1 | 5.99
* O=C(Nc1c2c(cc3c1CCC3)CCC2)NS(=O)(=O)c1ccc(CNC(=O)c2cc3cc4c5c(c3oc2=O)CCCN5CCC4)cc1 | 6.49
* O=C(CCCCC1SCC2NC(=O)NC21)NCc1ccc(S(=O)(=O)NC(=O)Nc2c3c(cc4c2CCC4)CCC3)cc1 (stereo not shown) | 6.21

---

// reported kd, first-order off-rate constant for dissociation per item
molecular target: human NLRP3-PYD-NACHT domain protein (Homo sapiens, UniProt Q96P20); assay: SPR single-cycle kinetic binding to immobilized biotinylated NLRP3-PYD-NACHT; settings: SPR, 25 °C, 1:1 binding model
RECORDED_ENDPOINT: kd, first-order off-rate constant for dissociation (s⁻¹)

- O=C(CCCCC1SCC2NC(=O)NC21)NCc1ccc(S(=O)(=O)NC(=O)Nc2c3c(cc4c2CCC4)CCC3)cc1 (stereo not shown): 0.0088
- O=C(Nc1c2c(cc3c1CCC3)CCC2)NS(=O)(=O)c1ccc(CNC(=O)c2cc3cc4c5c(c3oc2=O)CCCN5CCC4)cc1: 0.0033
- O=C(CCCC[C@H]1SC[C@H]2NC(=O)N[C@H]21)NCCOCCOCC(=O)NCc1ccc(S(=O)(=O)NC(=O)Nc2c3c(cc4c2CCC4)CCC3)cc1: 0.022
- O=C(COCCOCCNC(=O)c1cc2cc3c4c(c2oc1=O)CCCN4CCC3)NCc1ccc(S(=O)(=O)NC(=O)Nc2c3c(cc4c2CCC4)CCC3)cc1: 0.01

---

As shown below, each of these compounds has a reported kon value.
molecular target: human NLRP3-PYD-NACHT domain protein (Homo sapiens, UniProt Q96P20); assay: SPR single-cycle kinetic binding to immobilized biotinylated NLRP3-PYD-NACHT; settings: read-out: ka, second-order on-rate constant for association
RECORDED_ENDPOINT: kon (M⁻¹ s⁻¹)

• O=C(COCCOCCNC(=O)c1cc2cc3c4c(c2oc1=O)CCCN4CCC3)NCc1ccc(S(=O)(=O)NC(=O)Nc2c3c(cc4c2CCC4)CCC3)cc1 = 13000
• O=C(CCCCC1SCC2NC(=O)NC21)NCc1ccc(S(=O)(=O)NC(=O)Nc2c3c(cc4c2CCC4)CCC3)cc1 (stereo not shown) = 14000
• O=C(Nc1c2c(cc3c1CCC3)CCC2)NS(=O)(=O)c1ccc(CNC(=O)c2cc3cc4c5c(c3oc2=O)CCCN5CCC4)cc1 = 10000
• O=C(CCCC[C@H]1SC[C@H]2NC(=O)N[C@H]21)NCCOCCOCC(=O)NCc1ccc(S(=O)(=O)NC(=O)Nc2c3c(cc4c2CCC4)CCC3)cc1 = 22000
